- System: EKVX NSCLC
- Protocol Details: NCI-60 one-dose screen, 48 h (100 = growth as untreated, 0 = no growth, -100 = all killed)
- Assay Setup: 10 µM unless noted
The panel holds about 83,000 compounds, 20% with a hit somewhere; the sample as a whole holds those more often.
// 0 strictly below 60% in growth; 1 otherwise

COc1ccc(NC(=O)c2sc3nc(C)c(C(O)c4ccc(OC)cc4)cc3c2N)cc1 (centres undefined); 0
C=C1C(=O)O[C@H]2[C@H]1CC/C(COC(=O)CCCCCC(=O)OC/C1=C/CC[C@@]3(C)O[C@H]3[C@H]3OC(=O)C(=C)[C@@H]3CC1)=C\CC[C@@]1(C)O[C@@H]21; 0
C#CCn1cc(C=C2C(=O)NC(=S)NC2=O)c2cc(Cl)ccc21; 1
Cn1/c(=N/NC(N)=S)ccc2ccccc21; 1
Cc1ccc(C(=O)Nc2ccccc2C(=O)N/N=C(\c2ccccc2)c2ccccn2)cc1; 0
O=C1Nc2c(ccc(Cl)c2Cl)/C1=C/c1ccccn1; 1
COc1c(Cl)cc(Cl)c2ccc(C=C3C(=O)N(C)C(=O)N(C)C3=O)nc12; 1
O=C(Nc1ccc2ncnc(Nc3ccc(Oc4cccc(F)c4)c(Cl)c3)c2c1)c1ccc(CN2CCOCC2)cc1; 0
